test system: RIOK2; conditions: concentration: 1 μM, replicates: in singlicate; n = 1;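 further: KINOMEscan kinase panel screen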
EXPERIMENTAL_ENDPOINT: %Inh (%)

{"columns": ["COMPOUND", "STUDY_SYSTEM", "RESULT_NUMBER"],
 "data": [
  ["Cc1ccc(NC(=O)c2cccc(C#N)c2)cc1-c1ccc(C(=O)Nc2ccncc2)cc1 [GSK1398463]", "RIOK2", 0],
  ["Cl.O=S(=O)(c1cccc(F)c1)c1ccc(Nc2ncnc3cc(Br)sc23)cc1Cl [GSK306886]", "RIOK2", 3],
  ["FC(F)(F)c1cc(Nc2nccc(-c3c(-c4ccc(Cl)cc4)nn4ncccc34)n2)ccc1Cl [GW829351]", "RIOK2", 0],
  ["COc1ccc(NC(=O)c2ccc(-c3cc(-c4nnc(C)o4)ccc3C)cc2)cc1 [GW595885]", "RIOK2", 0],
  ["Fc1cccc(COc2ccc(Nc3ncnc4sc(-c5ccc[nH]5)cc34)cc2Cl)c1 [GW707818]", "RIOK2", 0],
  ["COC(=O)c1cccc(NC(=O)NCCNc2ccnc(Nc3ccc(F)cc3)n2)c1 [GSK1379883]", "RIOK2", 0]
]}

* * *

test system: ERK8; construct: gene MAPK15; settings: concentration: 1 μM, replicates: in singlicate; n = 1

{"columns": ["MOLECULE", "%Inh (%)"],
 "data": [
  ["CC(C)(C)c1ccc(-n2cnc3c(N)ncnc32)cc1 [SKF-97263]", 48],
  ["COc1cc2ncnc(Nc3ccc(OCc4ccccc4Br)c(Cl)c3)c2cc1OC.Cl [GI261590]", 0],
  ["Cc1ccc(C)c(NC(=O)NCCNc2ccnc(Nc3ccc(F)cc3)n2)c1 [GSK1379878]", 0],
  ["CSc1ccc(NC2=C(c3ccccc3Cl)C(=O)NC2=O)cc1 [SB-342411]", 0],
  ["COc1ccc(NC(=O)Nc2ccc(C)c(-c3ccc(C(=O)Nc4ccncc4)cc3)c2)cc1 [GSK1398475]", 0],
  ["CS(=O)(=O)CCNCc1ccc(-c2ccc3ncnc(Nc4ccc(OCc5ccccc5)c(Cl)c4)c3c2)o1.Cl [GW574783]", 15],
  ["CSc1nn2c(=O)cc(N3CCOCC3)nc2n1Cc1cccc(Cl)c1Cl [GSK2347225]", 0],
  ["Nc1n[nH]c2nnc(-c3ccccc3)cc12 [SB-517389]", 18],
  ["Cc1cc(N2CCC(NS(=O)(=O)c3ccc(F)cc3)CC2)nc(Nc2cccc(C#N)c2)n1.O=C(O)C(F)(F)F [GSK1653537]", 31],
  ["CC(C)N1CCC(n2cnc(-c3ccc(F)cc3)c2-c2ccnc(N)n2)CC1 [SB-223132]", 4],
  ["CC(C)(C)OC(=O)NC1CCCN(c2cc(-c3ccc4c(N)n[nH]c4c3)nc(N)n2)C1 (stereo not drawn) [GSK2286096]", 0],
  ["Clc1ccc(-c2cc(-c3c[nH]nc3-c3ccccn3)ccn2)cc1 [GW681251]", 0]
]}

* * *

system: AAK1; settings: concentration: 1 μM, replicates: in singlicate; n = 1
Each entry gets False if its %Inh stays under 1%, and True if its %Inh is 1% or above.

{"columns": ["COMPOUND", "STUDY_SYSTEM", "ASSIGNED_CLASS"],
 "data": [
  ["Cl.c1ccc(Cn2ncc3cc(Nc4ncnc5ccccc45)ccc32)cc1 [GW273749]", "AAK1", "True"],
  ["FC(F)(F)c1ccc(-c2cc(-c3c[nH]nc3-c3ccccn3)ccn2)cc1 [GW599550]", "AAK1", "True"],
  ["Cl.Cn1ccc(-c2cccc(Nc3ccnc4cc(-c5nccs5)ccc34)c2)n1 [GW525701]", "AAK1", "True"],
  ["Cc1ccc(O)cc1Nc1cc(C(F)(F)F)nc2ccc(-c3ccncc3)cc12 [GW630823]", "AAK1", "False"],
  ["COc1ccc(NC(=O)c2ccc(-c3cc(-c4nnc(C)o4)ccc3C)cc2)cc1 [GW595885]", "AAK1", "False"],
  ["Clc1cc(Nc2ncnc3cc[nH]c23)ccc1OCc1ccccn1", "AAK1", "True"],
  ["O=C(c1ccc(-c2cc(-c3c[nH]nc3-c3ccccn3)ccn2)cc1)N1CCCC1 [GW792479]", "AAK1", "True"],
  ["NC(=O)c1sc(-n2cnc3ccccc32)cc1OCc1ccccc1F [GSK1024306]", "AAK1", "True"],
  ["OCCOCCn1ccc2ncnc(Nc3ccc(Oc4cccc(Cl)c4)c(Cl)c3)c21", "AAK1", "False"],
  ["O=C(Nc1ccccc1)Nc1ccc(Oc2ccc3nccn3n2)cc1", "AAK1", "False"],
  ["Nc1nc(-c2ccc3c(N)n[nH]c3c2)cc(N2CCC[C@@H](C(=O)Nc3ccccc3)C2)n1.O=C(O)C(F)(F)F.O=C(O)C(F)(F)F [GSK2288359]", "AAK1", "True"],
  ["Nc1nc(-c2cccnc2)c(-c2ccnc3ccccc23)s1 [GW684083]", "AAK1", "True"],
  ["CCc1nc(-c2cccc(C)c2)c(-c2ccnc(NC(=O)c3ccccc3)c2)s1", "AAK1", "True"]
]}

* * *

test system: PRKCD; details: concentration: 1 μM, replicates: in singlicate; n = 1
EXPERIMENTAL_ENDPOINT: %Inh (%)

{"columns": ["COMPOUND", "STUDY_SYSTEM", "UNIT_SYMBOL", "RESULT_NUMBER"],
 "data": [
  ["Cl.Fc1ccccc1COc1ccc(Nc2ncnc3ccc(-c4nnc(C(F)(F)F)o4)cc23)cc1Cl", "PRKCD", "%", 0],
  ["c1ccc(-c2ccc3c(-c4ccnc(Nc5ccc6c(c5)OCCO6)n4)cnn3n2)cc1", "PRKCD", "%", 1],
  ["CC(C)(C)c1ccc(-n2cnc3c(N)ncnc32)cc1", "PRKCD", "%", 6],
  ["CN1CCC(n2cnc(-c3ccc(F)cc3)c2-c2ccnc(NC3CCNCC3)n2)CC1", "PRKCD", "%", 1],
  ["Fc1ccc(-c2ncn(CCCNCc3ccccc3)c2-c2ccncc2)cc1", "PRKCD", "%", 0],
  ["Cc1ccc(NC(=O)c2cccc(C#N)c2)cc1-c1ccc(C(=O)Nc2ccncc2)cc1", "PRKCD", "%", 7],
  ["Nc1nccc2scc(-c3ccc4c(c3)CCN4C(=O)Cc3cc(F)ccc3F)c12", "PRKCD", "%", 0],
  ["CC(C)(C)OC(=O)NC1CCCN(c2cc(-c3ccc4c(N)n[nH]c4c3)nc(N)n2)C1 (centres unmarked)", "PRKCD", "%", 0],
  ["CS(=O)(=O)CCNCc1ccc(-c2ccc3ncnc(Nc4ccc(OCc5ccccc5)c(Cl)c4)c3c2)o1.Cl", "PRKCD", "%", 0],
  ["Clc1cccc(-c2nc(Nc3ccncc3)c3ccccc3n2)c1", "PRKCD", "%", 24],
  ["FC(F)(F)c1ccc(-c2cc(-c3c[nH]nc3-c3ccccn3)ccn2)cc1", "PRKCD", "%", 0],
  ["NC(=O)c1sc(-n2cnc3ccccc32)cc1OCc1ccccc1F", "PRKCD", "%", 0],
  ["Oc1ccc2ncnc(Nc3ccc(OCc4ccccc4)cc3)c2c1", "PRKCD", "%", 0],
  ["COc1ccc(Nc2nccc(N3CCC(NC(=O)c4cccc(NC(C)=O)c4)C3)n2)cc1 (centres unmarked)", "PRKCD", "%", 8],
  ["O=C(CCO)NCCn1ccc2ncnc(Nc3ccc(Oc4cccc(C(F)(F)F)c4)c(Cl)c3)c21", "PRKCD", "%", 0],
  ["COc1ccc(NC(=O)c2ccc(-c3cc(-c4nnc(C)o4)ccc3C)cc2)cc1", "PRKCD", "%", 0],
  ["OCCOCCn1ccc2ncnc(Nc3ccc(Oc4cccc(Cl)c4)c(Cl)c3)c21", "PRKCD", "%", 28],
  ["COc1cc2c(Nc3cccc(NC(=O)c4ccccc4)c3)ncnc2cc1OCCCN1CCOCC1", "PRKCD", "%", 18],
  ["Nc1nc(-c2ccc3c(N)n[nH]c3c2)cc(N2CCCCC2)n1", "PRKCD", "%", 0],
  ["CNc1nccc(-c2c(-c3ccc(F)cc3)ncn2C2CCN(C)CC2)n1", "PRKCD", "%", 10]
]}

* * *

test system: MEK5; construct: gene MAP2K5; conditions: concentration: 1 μM, replicates: in singlicate; n = 1
Each entry gets condition not met if its %Inh stays under 30%, and condition met if its %Inh is 30% or above.

{"columns": ["MOLECULE", "ASSIGNED_CLASS"],
 "data": [
  ["Fc1ccc(-c2ncn(CCCNCc3ccccc3)c2-c2ccncc2)cc1", "condition met"],
  ["COC(=O)c1c(-c2ccccc2)c2cc(Cl)ccc2c(=O)n1Cc1ccc(S(C)(=O)=O)cc1", "condition not met"],
  ["COc1ccc(Nc2nccc(N3CCC(NC(=O)Nc4ccc5c(c4)OCO5)C3)n2)cc1 (stereo not shown) [GSK1379745]", "condition met"],
  ["CS(=O)(=O)CCNCc1ccc(-c2ccc3ncnc(Nc4ccc(OCc5ccccc5)c(Cl)c4)c3c2)o1.Cl [GW574783]", "condition met"],
  ["Cl.Fc1ccccc1COc1ccc(Nc2ncnc3ccc(-c4nnc(C(F)(F)F)o4)cc23)cc1Cl [GW424170]", "condition not met"],
  ["COc1ccc(-c2oc3ncnc(N)c3c2-c2ccc(OC)cc2)cc1 [SB-589132]", "condition met"],
  ["Fc1ccc(Nc2nccc(-c3c(-c4ccc(Cl)cc4)nn4ncccc34)n2)cc1F [GW829058]", "condition not met"],
  ["Nc1nc(-c2ccc3c(N)n[nH]c3c2)cc(N2CCC[C@@H](C(=O)Nc3ccccc3)C2)n1.O=C(O)C(F)(F)F.O=C(O)C(F)(F)F [GSK2288359]", "condition met"],
  ["COc1cc2c(Nc3cccc(NC(=O)c4ccccc4)c3)ncnc2cc1OCCCN1CCOCC1 [GSK223810]", "condition met"],
  ["Nc1n[nH]c2nnc(-c3ccccc3)cc12 [SB-517389]", "condition met"]
]}
